System: 282377-053-R-J1-PDC complex spheroid viability;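 note: spheroids exposed to compounds for seven days; 100% = DMSO vehicle control viability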
Assay: Anticancer human tumor 282377-053-R-J1-PDC patient-derived colon adenocarcinoma cell line growth inhibition [POLQ]
Conditions: second compound 10 µM; first compound 0.1 µM; active compounds read low
measurement_name: viability, T/C (%)
Field format: number, assumed %, no unit text.

Asked: I have this compound here, COc1cc(C2c3cc4c(cc3C(OC3OC5COC(C)OC5C(O)C3O)C3COC(=O)C23)OCO4)cc(OC)c1O (stereo not given) + Cc1cccc(N(C)C(=O)C2C(O)CCN2c2nc(C)cc(C(F)(F)F)c2C#N)c1 , and I need its recorded viability, T/C.
Given back: 100

Asked: I have this compound here, Cn1ncnc1[C@H]1c2n[nH]c(=O)c3cc(F)cc(c23)N[C@@H]1c1ccc(F)cc1 + Nc1ccc(C#CCN(C(=O)Cc2ncc(C(F)(F)F)cc2C(F)(F)F)c2ccc(F)cc2)nn1 , and I need its recorded viability, T/C.
Given back: 127

Asked: I have this compound here, CC1COCCN1c1cc(C2(S(C)(=N)=O)CC2)nc(-c2ccnc3[nH]ccc23)n1 (stereo not given) + Cc1cccc(N(C)C(=O)C2C(O)CCN2c2nc(C)cc(C(F)(F)F)c2C#N)c1 , and I need its recorded viability, T/C.
Given back: 73.6

Asked: I have this compound here, C#Cc1c(F)ccc2cc(O)cc(-c3ncc4c(N5CC6CCC(C5)N6)nc(OCC56CCCN5CC(F)C6)nc4c3F)c12 (stereo not given) + COC1C(OC(N)=O)C(O)C(Oc2ccc3c(O)c(NC(=O)c4ccc(O)c(CC=C(C)C)c4)c(=O)oc3c2C)OC1(C)C , and I need its recorded viability, T/C.
Given back: 91.2

Asked: I have this compound here, Cn1ncnc1[C@H]1c2n[nH]c(=O)c3cc(F)cc(c23)N[C@@H]1c1ccc(F)cc1 + COC1C(OC(N)=O)C(O)C(Oc2ccc3c(O)c(NC(=O)c4ccc(O)c(CC=C(C)C)c4)c(=O)oc3c2C)OC1(C)C , and I need its recorded viability, T/C.
Given back: 105
